# experimental.target: T1, recombinant human PD-L1-His (human, UniProt Q9NZQ7 19-238)
# T1 construct: Analyte of the BLI assay; also called hPD-L1
# T1 sequence (Q9NZQ7 19-238): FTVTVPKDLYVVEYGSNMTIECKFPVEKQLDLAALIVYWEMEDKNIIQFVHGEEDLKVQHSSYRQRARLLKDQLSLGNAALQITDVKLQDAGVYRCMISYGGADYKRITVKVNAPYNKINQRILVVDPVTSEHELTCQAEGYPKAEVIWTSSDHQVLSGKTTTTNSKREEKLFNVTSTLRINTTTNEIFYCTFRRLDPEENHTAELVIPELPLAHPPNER
# test.details: BLI (Octet RED96), antibody captured on AHC biosensor, PD-L1-His in solution, 1:1 model;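 note: rates obtained by 1:1 Langmuir fitting of the binding response, using a 2.5 min association phase then a 5 min dissociation phase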
pKd: −log10 of the molar value.
binders and their reported pKd
value.type: pKd

• PHS102.YT6D (antibody, human IgG1, kappa, N297A, V domains shown) VH: EVQLVESGGGLVQPGGSLRLSCAASGFTISDGYIHWVRQAPGKGLEWVARIDPLTGRTMYADSVKGRFTISADTSKNTAYLQMNSLRAEDTAVYYCARAFSWWPDYWGQGTLVTVSS VL: DIQMTQSPSSLSASVGDRVTITCRAGQDVYKAVAWYQQKPGKAPKLLIYWSTNLYSGVPSRFSGSGSGTDFTLTISSLQPEDFATYYCQQIMSPPPTFGQGTKVEIKR = 8.67
• PHS102.HSYPP31F (antibody, human IgG1, kappa, N297A, V domains shown, full-length human IgG1-N297A / kappa) VH: EVQLVESGGGLVQPGGSLRLSCAASGFTIEDSYIHWVRQAPGKGLEWVARIDPITGLTHYADSVKGRFTISADTSKNTAYLQMNSLRAEDTAVYYCARAFSWFPDYWGQGTLVTVSS VL: DIQMTQSPSSLSASVGDRVTITCRAGQDVYKAVAWYQQKPGKAPKLLIYWSTNLYSGVPSRFSGSGSGTDFTLTISSLQPEDFATYYCQQIMEPPVTFGQGTKVEIKR = 8.73
• PHS102.YP7G (antibody, human IgG1, kappa, N297A, V domains shown, full-length human IgG1-N297A / kappa) VH: EVQLVESGGGLVQPGGSLRLSCAASGFTIDDTYIHWVRQAPGKGLEWVARIDPANGMTRYADSVKGRFMISADTSKNTAYLQMNSLRAEDTAVYYCARAFSWFPDYWGQGTLVTVSS VL: DIQMTQSPSSLSASVGDRVTITCRAGQDVYKAVAWYQQKPGKAPKLLIYWSTNLYSGVPSRFSGSGSGTDFTLTISSLQPEDFATYYCQQGSTWPLTFGQGTKVEIKR = 8.26
